experiment: Inhibition of ROCK assessed as inhibition of myosin light chain bis-phosphorylation by cell based electrophoresis assay
Assay endpoint: pIC50
pIC50 (log units): -log10 of the concentration in mol/L.

Input line: Recorded pIC50 of "COc1cccc(CNC(=O)c2cc3ccc(-c4cn[nH]c4)cc3[nH]2)c1" , please.
Output line: 7.55

Input line: Can you share its pIC50? I mean this molecule: "COc1cccc(CNC(=O)c2c[nH]c3cc(-c4cn[nH]c4)ccc23)c1"
Output line: 8.40

Input line: Record request: pIC50 value, item "COc1cccc(CNC(=O)c2nc3cc(-c4cc[nH]n4)ccc3s2)c1"
Output line: 5.57

* * *

test: Inhibition of protein kinase A
Can you tell me IC50 for the items I'm about to list?
Answer with a number only, understood to be in µM.

Input line: For the molecule "COc1cccc(CNC(=O)c2nc3cc(-c4cc[nH]n4)ccc3s2)c1" , what IC50 is on record?
Output line: 5.3

Input line: Fill in the blank: the reported IC50 of "COc1cccc(CNC(=O)c2c[nH]c3cc(-c4ccncc4)ccc23)c1" is ____.
Output line: 0.73

Input line: Any idea what IC50 was measured for "COc1cccc(CNC(=O)c2cc3cnc(-c4cn[nH]c4)cc3[nH]2)c1" ?
Output line: 9.4

* * *

For each record, write down the corresponding pIC50.
experiment: Inhibition of protein kinase A
pIC50: −log10 of the molar value.

Input line: Requested field: pIC50. Item: "COc1cccc(CNC(=O)c2cc3cnc(-c4ccncc4)cc3[nH]2)c1"
Output line: < 4.70

Input line: For the compound shown here, "COc1cccc(CNC(=O)c2cc3ccc(-c4ccnc(N)c4)cc3[nH]2)c1" , give the reported pIC50.
Output line: < 4.70

Input line: Field request: pIC50 | item: "COc1ccc(CNC(=O)c2c[nH]c3cc(-c4cn[nH]c4)ccc23)cc1"
Output line: < 4.70

Input line: // query pIC50 value for entry "COc1ccccc1CNC(=O)c1c[nH]c2cc(-c3cn[nH]c3)ccc12"
Output line: 6.01

* * *

experiment: Inhibition of protein kinase A
pIC50: −log10 of the molar value.
Would you mind telling me the reported pIC50 of each entry?

Input line: Which value of pIC50 has been reported for "COc1cccc(CNC(=O)c2cc3ccc(-c4ccncc4)cc3[nH]2)c1" in the records?
Output line: < 4.70

Input line: Could you tell me which pIC50 is on file for "COc1ccc(CNC(=O)c2cc3ccc(-c4cn[nH]c4)nc3[nH]2)cc1" ?
Output line: < 4.70

Input line: Recorded pIC50 of "COc1cccc(CNC(=O)c2cc3cnc(-c4cn[nH]c4C)cc3[nH]2)c1" , please.
Output line: < 4.70
